Target: T1, Biotinylated human DLL3 (human, UniProt Q9NYJ7 27-492, biotinylated (site not stated))
T1 construct: also called Delta-like ligand 3; Delta Like Canonical Notch Ligand 3
T1 sequence (looked up): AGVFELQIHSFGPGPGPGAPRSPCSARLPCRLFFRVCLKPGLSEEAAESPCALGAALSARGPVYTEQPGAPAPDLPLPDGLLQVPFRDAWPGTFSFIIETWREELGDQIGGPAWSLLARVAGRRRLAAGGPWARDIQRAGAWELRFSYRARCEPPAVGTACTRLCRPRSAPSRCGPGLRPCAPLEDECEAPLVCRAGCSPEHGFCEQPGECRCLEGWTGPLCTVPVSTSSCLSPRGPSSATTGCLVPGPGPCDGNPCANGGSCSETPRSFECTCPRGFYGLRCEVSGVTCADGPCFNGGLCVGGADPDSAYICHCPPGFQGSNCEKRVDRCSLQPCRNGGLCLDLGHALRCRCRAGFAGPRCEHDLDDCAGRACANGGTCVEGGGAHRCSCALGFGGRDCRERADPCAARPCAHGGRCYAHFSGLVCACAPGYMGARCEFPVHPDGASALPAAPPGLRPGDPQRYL
Test: SPR, biotin-hDLL3 on SA chip; Cpd 58, a separate compound
Bridge positions count the residues as written; N and C are the ends. Square brackets hold non-standard residues; d marks the D form. * marks the point of attachment. DOTA = O=C(O)CN1CCN(CC(=O)O)CCN(CC(=O)*)CCN(CC(=O)O)CC1; Trp(5-F) = N[C@@H](Cc1c[nH]c2ccc(F)cc12)C(=O)O
reportedProperty: pKd
Give bare numbers, as −log10 of the molar value.

Form field: reported pKd of Ac-MSDC[Trp(5-F)]LQWNCPFD[dK](DOTA)-NH2 (disulfide 4-10) [Cpd #58]
7.38

These measurements were taken from patent US20250186541A1.
